measurement-target: hERG channel (Homo sapiens)
Construct: expressed in transfected cells; host or cells: HEK293 cells stably expressing hERG
Sequence (Q12809 whole entry): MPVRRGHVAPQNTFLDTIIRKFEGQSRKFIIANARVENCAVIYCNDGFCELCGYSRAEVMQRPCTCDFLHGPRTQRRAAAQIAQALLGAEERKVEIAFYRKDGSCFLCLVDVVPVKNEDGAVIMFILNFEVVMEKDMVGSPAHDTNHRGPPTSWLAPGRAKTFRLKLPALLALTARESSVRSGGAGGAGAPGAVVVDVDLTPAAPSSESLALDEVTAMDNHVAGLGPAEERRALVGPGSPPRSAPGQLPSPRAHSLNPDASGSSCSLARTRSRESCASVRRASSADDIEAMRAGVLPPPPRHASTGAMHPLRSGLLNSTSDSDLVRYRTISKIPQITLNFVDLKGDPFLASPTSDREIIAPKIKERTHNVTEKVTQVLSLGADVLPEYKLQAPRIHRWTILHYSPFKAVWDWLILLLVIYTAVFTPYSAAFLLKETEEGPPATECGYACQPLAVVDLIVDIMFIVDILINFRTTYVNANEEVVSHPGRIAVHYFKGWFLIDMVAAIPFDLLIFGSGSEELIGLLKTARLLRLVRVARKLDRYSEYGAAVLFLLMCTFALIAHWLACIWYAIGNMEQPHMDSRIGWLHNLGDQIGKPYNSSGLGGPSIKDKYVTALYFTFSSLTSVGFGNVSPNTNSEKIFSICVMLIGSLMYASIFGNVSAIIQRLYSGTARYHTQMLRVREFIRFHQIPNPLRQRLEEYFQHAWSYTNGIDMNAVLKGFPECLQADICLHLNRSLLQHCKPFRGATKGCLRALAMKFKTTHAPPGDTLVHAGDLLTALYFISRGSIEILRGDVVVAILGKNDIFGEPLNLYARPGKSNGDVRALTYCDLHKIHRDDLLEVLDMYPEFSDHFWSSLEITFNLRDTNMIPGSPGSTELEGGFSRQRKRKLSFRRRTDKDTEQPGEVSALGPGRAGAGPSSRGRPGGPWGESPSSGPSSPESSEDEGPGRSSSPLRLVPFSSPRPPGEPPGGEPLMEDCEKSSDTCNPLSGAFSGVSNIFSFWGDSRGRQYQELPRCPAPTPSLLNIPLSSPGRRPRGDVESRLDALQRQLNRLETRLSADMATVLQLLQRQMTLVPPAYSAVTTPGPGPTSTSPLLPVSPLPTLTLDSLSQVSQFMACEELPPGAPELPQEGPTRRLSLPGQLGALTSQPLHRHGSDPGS
assay: Effects on hERG current, whole-cell patch-clamp in HEK293 cells
Format: cell-based
assay-setup: human, HEK293 cells stably expressing the hERG channel, 30 μmol/L
Procedure: The effects of Compound A on the human ether-à-go-go-related gene (hERG) current were evaluated using the whole-cell patch-clamp method in human embryonic kidney (HEK293) cells stably expressing the hERG channel. Cells were treated with Compound A at concentrations of 1, 3, 10, and 30 μmol/L, positive control (E-4031) at 0.1 μmol/L, or vehicle (0.3 v/v % dimethyl sulfoxide) for 10 minutes.
assay-readout: inhibition at 10 min, 30 μmol/L
I'd appreciate it if you included the unit after the number.

Which inhibition at 10 min, 30 μmol/L reading was recorded for the compound CC(=O)N[C@H]1CC[C@H](NC(=O)CN2CCN(c3nncc(-c4ccc(C)cc4)n3)CC2)CC1 ? 27%

Entry source: patent US20250099475A1
